Data provenance: patent US11535621B2

Let's go through some pIC50 measurements on UniProt:P28907 together.
pIC50: −log10 of the molar value.

Field: example entries. Status: answers known.
### Prompt Fill in the recorded pIC50 for this molecule, with UniProt:P28907 as test system: C[C@H](O)COC1CCC(NC(=O)c2nc(-n3ccnc3)nc3cc[nH]c23)CC1 (stereo partly shown) [Example 125b]
### Response 7.00 to 8.00

### Prompt Fill in the recorded pIC50 for this molecule, with UniProt:P28907 as test system: "COCCN(C)[C@H]1CC[C@H](NC(=O)c2nc(-n3ccnc3)nc3cc[nH]c23)CC1"
### Response 7.00 to 8.00

### Prompt Fill in the recorded pIC50 for this molecule, with UniProt:P28907 as test system: "CN1CCN(c2ccc(NC(=O)c3nc(-n4ccnc4)nc4cc[nH]c34)cn2)CC1"
### Response > 8.00

Turning to the following molecule.
### Prompt Fill in the recorded pIC50 for this molecule, with UniProt:P28907 as test system: "CN(C)CCOc1ccc(NC(=O)c2nc(-n3ccnc3)nc3cc[nH]c23)nc1"
### Response 7.00 to 8.00

====

Let's go through some IC50 measurements on Human CD38 (Homo sapiens (Human)) together.

Field: example entries. Status: answers known.
### Prompt # lookup: IC50 of C[C@H](O)[C@H]1CC[C@H](NC(=O)c2nc(-n3ccnc3)cc3ccsc23)CC1 [Example 264b]
### Response 0.01 to 0.1 µM

### Prompt # lookup: IC50 of O=C(N[C@H]1CC[C@H](OC(F)(F)F)CC1)c1nc(-n2ccnc2)nc2cc[nH]c12 [Example 167]
### Response 0.01 to 0.1 µM

### Prompt # lookup: IC50 of COCCO[C@H]1CCC[C@H](NC(=O)c2nc(-n3ccnc3)nc3cc[nH]c23)C1 [Example 124a]
### Response 0.01 to 0.1 µM

### Prompt # lookup: IC50 of O=C(Nc1ccc(Cl)cn1)c1nc(-n2ccnc2)nc2cc[nH]c12 [Example 134]
### Response < 0.01 µM

### Prompt # lookup: IC50 of CC(C)(O)[C@H]1C[C@H](NC(=O)c2nc(-n3ccnc3)nc3cn[nH]c23)C1 [Example 265]
### Response 0.01 to 0.1 µM

### Prompt # lookup: IC50 of O=C(NCCC(F)F)c1nc(-n2ccnc2)cc2cn[nH]c12 [Example 245]
### Response 0.01 to 0.1 µM

### Prompt # lookup: IC50 of N#CC[C@H]1CC[C@H](NC(=O)c2nc(-n3ccnc3)cc3cn[nH]c23)CC1 [Example 219]
### Response < 0.01 µM

Turning to the following molecule.
### Prompt # lookup: IC50 of Cc1cc2cc(-c3cncs3)cc(C(=O)NCc3c(F)cccc3C(F)(F)F)c2[nH]1 [Example 11]
### Response 0.01 to 0.1 µM

====

Let's go through some IC50 measurements on UniProtKB P28907 together.

### Prompt Fill in the recorded IC50 for this compound, with UniProtKB P28907 as test system: "CC(F)(F)CN[C@H]1CC[C@@H](NC(=O)c2nc(-n3ccnc3)cc3cn[nH]c23)CC1"
### Response 100 to 1000 nM

Continuing:
### Prompt Fill in the recorded IC50 for this compound, with UniProtKB P28907 as test system: "CNC(=O)[C@H]1CC[C@H](NC(=O)c2nc(-n3ccnc3)cc3cn[nH]c23)CC1"
### Response < 10 nM

### Prompt Fill in the recorded IC50 for this compound, with UniProtKB P28907 as test system: "O=C(NC1CCS(=O)(=O)CC1)c1nc(-n2ccnc2)nc2cc[nH]c12"
### Response 10 to 100 nM

### Prompt Fill in the recorded IC50 for this compound, with UniProtKB P28907 as test system: "O=C(NCc1c(F)cccc1C(F)(F)F)c1cc(-c2cncs2)cc2cc[nH]c12"
### Response 10 to 100 nM

### Prompt Fill in the recorded IC50 for this compound, with UniProtKB P28907 as test system: "O=C(NCC1CCCCC1)c1nc(-n2ccnc2)nc2cc[nH]c12"
### Response 10 to 100 nM

### Prompt Fill in the recorded IC50 for this compound, with UniProtKB P28907 as test system: "O=C(Nc1cncc(Cl)c1)c1nc(-n2ccnc2)nc2cc[nH]c12"
### Response < 10 nM

### Prompt Fill in the recorded IC50 for this compound, with UniProtKB P28907 as test system: "O=C(NC1CCNCC1)c1nc(-n2ccnc2)nc2cc[nH]c12"
### Response > 1000 nM

### Prompt Fill in the recorded IC50 for this compound, with UniProtKB P28907 as test system: "O=C(N[C@H]1CC[C@H](NCC(F)F)CC1)c1nc(-n2ccnc2)cc2ccsc12"
### Response < 10 nM

### Prompt Fill in the recorded IC50 for this compound, with UniProtKB P28907 as test system: C[C@@](O)(C(=O)N[C@H]1CC[C@H](NC(=O)c2nc(-n3ccnc3)nc3cc[nH]c23)CC1)C(F)(F)F (single isomer, unassigned) [Example 127a]
### Response 10 to 100 nM

====

Reported values of pIC50 for individual entries
Biological target: Human CD38 (Homo sapiens (Human))
pIC50: −log10 of the molar value.

### Prompt Fill in the recorded pIC50 for this molecule, with Human CD38 (Homo sapiens (Human)) as test system: O=C(NCCC1CCC(F)(F)CC1)c1nc(-n2ccnc2)nc2cc[nH]c12 [Example 157]
### Response 7.00 to 8.00

### Prompt Fill in the recorded pIC50 for this molecule, with Human CD38 (Homo sapiens (Human)) as test system: O=C(N[C@H]1CCCOC1)c1nc(-n2ccnc2)nc2cc[nH]c12 (single isomer, unassigned) [Example 28a]
### Response 7.00 to 8.00

### Prompt Fill in the recorded pIC50 for this molecule, with Human CD38 (Homo sapiens (Human)) as test system: C[C@@H](O)[C@H]1CC[C@H](NC(=O)c2nc(-n3ccnc3)cc3cn[nH]c23)CC1 [Example 192b]
### Response > 8.00

### Prompt Fill in the recorded pIC50 for this molecule, with Human CD38 (Homo sapiens (Human)) as test system: CC(F)(F)CN[C@H]1CC[C@H](NC(=O)c2nc(-n3ccnc3)cc3ccsc23)CC1 [Example 262]
### Response 7.00 to 8.00

### Prompt Fill in the recorded pIC50 for this molecule, with Human CD38 (Homo sapiens (Human)) as test system: CO[C@H]1CC[C@H](NC(=O)c2nc(-n3ccnc3)nc3cn[nH]c23)CC1 [Example 183]
### Response > 8.00

### Prompt Fill in the recorded pIC50 for this molecule, with Human CD38 (Homo sapiens (Human)) as test system: O=C(N[C@H]1CC[C@H](N2CC(F)(F)C2)CC1)c1nc(-n2ccnc2)nc2cc[nH]c12 [Example 204]
### Response 7.00 to 8.00

### Prompt Fill in the recorded pIC50 for this molecule, with Human CD38 (Homo sapiens (Human)) as test system: O=C(Nc1ccccn1)c1nc(-n2ccnc2)nc2cc[nH]c12 [Example 81]
### Response > 8.00

### Prompt Fill in the recorded pIC50 for this molecule, with Human CD38 (Homo sapiens (Human)) as test system: C[C@@H](O)[C@H]1CC[C@H](NC(=O)c2nc(-n3ccnc3)cc3ccsc23)CC1 [Example 264a]
### Response > 8.00

Continuing:
### Prompt Fill in the recorded pIC50 for this molecule, with Human CD38 (Homo sapiens (Human)) as test system: C[C@](O)(C(=O)NC1CCC(NC(=O)c2nc(-n3ccnc3)nc3cc[nH]c23)CC1)C(F)(F)F (stereo partly shown) [Example 127b]
### Response 7.00 to 8.00

### Prompt Fill in the recorded pIC50 for this molecule, with Human CD38 (Homo sapiens (Human)) as test system: O=C(N[C@H]1CC[C@H](NCC(F)F)CC1)c1nc(-n2ccnc2)nc2cc[nH]c12 [Example 105]
### Response 7.00 to 8.00

### Prompt Fill in the recorded pIC50 for this molecule, with Human CD38 (Homo sapiens (Human)) as test system: O=C(N[C@H]1CC[C@H](C2(O)CC2)CC1)c1nc(-n2ccnc2)cc2ccsc12 [Example 263]
### Response > 8.00

====

Let's go through some IC50 measurements on Human CD38 (Homo sapiens (Human), UniProt P28907) together.
Sequence (P28907 whole entry): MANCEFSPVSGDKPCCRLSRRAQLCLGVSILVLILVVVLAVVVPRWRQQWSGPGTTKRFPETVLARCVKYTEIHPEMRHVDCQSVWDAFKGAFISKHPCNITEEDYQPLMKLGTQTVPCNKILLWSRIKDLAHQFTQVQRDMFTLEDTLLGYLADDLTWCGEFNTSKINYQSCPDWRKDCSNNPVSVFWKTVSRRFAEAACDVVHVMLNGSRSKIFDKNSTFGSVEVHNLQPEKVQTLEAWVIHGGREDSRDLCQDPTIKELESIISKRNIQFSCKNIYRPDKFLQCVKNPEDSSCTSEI

Field: example entries. Status: answers known.
### Prompt # lookup: IC50 of "C[C@]1(O)CC[C@@H](NC(=O)c2nc(-n3ccnc3)cc3cn[nH]c23)CC1"
### Response 10 to 100 nM

### Prompt # lookup: IC50 of "COCCO[C@H]1CC[C@H](NC(=O)c2cc(-n3ccnc3)nc3ccsc23)CC1"
### Response 10 to 100 nM

### Prompt # lookup: IC50 of "COCCO[C@H]1CC[C@H](NC(=O)c2cc(-c3cncs3)cc3nc[nH]c23)CC1"
### Response 100 to 1000 nM

Turning to the following molecule.
### Prompt # lookup: IC50 of "O=C(NCc1c(F)cccc1C(F)(F)F)c1cc(-n2ccnc2)cc2nc[nH]c12"
### Response > 1000 nM
